Reference source for all entries: paper PMC7582822

# experimentalTarget: human recombinant DPP-IV enzyme (Homo sapiens)
# Construct: purchased Cayman Chemical
# Sequence (P27487 whole entry): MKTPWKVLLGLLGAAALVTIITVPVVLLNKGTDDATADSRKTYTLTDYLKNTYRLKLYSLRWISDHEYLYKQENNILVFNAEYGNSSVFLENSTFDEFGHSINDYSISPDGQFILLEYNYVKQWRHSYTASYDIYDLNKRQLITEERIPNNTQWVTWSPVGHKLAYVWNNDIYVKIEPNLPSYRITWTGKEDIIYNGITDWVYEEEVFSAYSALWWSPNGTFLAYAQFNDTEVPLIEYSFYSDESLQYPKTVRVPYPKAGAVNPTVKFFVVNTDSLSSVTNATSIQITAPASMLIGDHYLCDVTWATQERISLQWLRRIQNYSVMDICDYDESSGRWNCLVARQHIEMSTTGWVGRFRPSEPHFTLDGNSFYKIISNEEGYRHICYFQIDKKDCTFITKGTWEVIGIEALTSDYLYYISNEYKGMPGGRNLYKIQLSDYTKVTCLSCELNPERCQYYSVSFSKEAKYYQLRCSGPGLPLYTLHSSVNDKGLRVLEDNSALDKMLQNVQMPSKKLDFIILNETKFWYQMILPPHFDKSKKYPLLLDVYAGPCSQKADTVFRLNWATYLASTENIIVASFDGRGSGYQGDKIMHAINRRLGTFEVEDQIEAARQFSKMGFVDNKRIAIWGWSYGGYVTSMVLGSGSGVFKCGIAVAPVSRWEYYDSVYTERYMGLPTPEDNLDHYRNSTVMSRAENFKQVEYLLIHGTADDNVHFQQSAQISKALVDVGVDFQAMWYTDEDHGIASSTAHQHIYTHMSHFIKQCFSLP
# assayProcedure: DPP-IV inhibitor screening assay (Cayman kit, fluorogenic H-Gly-Pro-AMC substrate)
# Type: biochemical
# details: in vitro, compounds at 0.1-100 μM, values in text; read-out: IC50, inhibition of DPP-IV activity
measurementType: IC50 (µM)

COc1ccc(/C=C/C(=O)c2ccc(O)c(OC)c2O)cc1O [Compound 4] ... 21.6
COc1c(O)ccc2c1O/C(=C\c1ccc(O)c(O)c1)C2=O [Compound 6, leptosidin] ... 13.3

P. COc1c(O)ccc2c1O[C@@H](c1ccc(O)c(O)c1)CC2=O [Compound 7, (2R)-8-methoxybutin]
Q. COc1c(O)ccc(C(=O)/C=C/c2ccc(O)c(O)c2)c1O [Compound 2, lanceoletin]
R. COc1ccc(C=CC(=O)c2ccc(OC3OC(CO)C(O)C(O)C3O)c(OC)c2O)cc1O (centres unmarked) [Compound 3]
Let's sort these by IC50, smallest first. Go ahead? Use the labels to give the requested order.
Q, R, P
